# Tested on: BxPC-3
# Assay: Solid tumour and haematological malignancy assay (CellTiterGlo)
# Assay type: cell-based
# Condition description: Homo sapiens, BXPC-3, 72 h, read-out: IC50 (absolute IC50)
Endpoint: IC50

Completed entries (count: 4):
>>> experimental_value("C[C@H](NP(=O)(OC[C@@H]1C[C@@H](O)[C@H](n2cnc3c(N)ncnc32)O1)Oc1cccc2ccccc12)C(=O)OCc1ccccc1 (some centres unmarked)")
"5 to 15 µM"
>>> experimental_value("Nc1ncnc2c1ncn2[C@@H]1O[C@H](COP(=O)(NCC(=O)OCc2ccccc2)Oc2ccccc2)C[C@H]1O (some centres unmarked)")
"15 to 100 µM"
>>> experimental_value("COC(=O)C(C)(C)NP(=O)(OC[C@@H]1C[C@@H](O)[C@H](n2cnc3c(N)ncnc32)O1)Oc1cccc2ccccc12 (some centres unmarked)")
"15 to 100 µM"
>>> experimental_value("CCOC(=O)CCc1ccccc1OP(=O)(N[C@@H](C)C(=O)OCc1ccccc1)OC[C@@H]1C[C@@H](O)[C@H](n2cnc3c(N)ncnc32)O1 (some centres unmarked)")
"15 to 100 µM"

Below: the item to evaluate.
Req: Name the reported IC50 value associated with the compound C[C@H](NP(=O)(OC[C@@H]1CC(O)[C@H](n2cnc3c(N)ncnc32)O1)Oc1ccccc1)C(=O)OCc1ccccc1 (some centres unmarked)
Resp: 15 to 100 µM

----------
# System: CCRF-CEM (TdT positive CEM)
# Assay: ATP (ViaLight plus) cytotoxicity assay
# Format: cell-based, Human
# Condition description: Homo sapiens, CCRF-CEM, CEM, with AK (adenosine kinase inhibitor A-134974, 1 μM)
Endpoint: IC50
Reply with the number, then its unit.

Examples with answers:
>>> experimental_value("C[C@H](NP(=O)(OC[C@@H]1CC(O)[C@H](n2cnc3c(N)ncnc32)O1)Oc1ccccc1)C(=O)OCc1ccccc1 (stereo partly drawn) [Compound A]")
"3.6 µM"
>>> experimental_value("COC(=O)C(C)(C)NP(=O)(OC[C@@H]1C[C@@H](O)[C@H](n2cnc3c(N)ncnc32)O1)Oc1cccc2ccccc12 (stereo partly drawn) [E]")
"10.3 µM"

Req: Given C[C@H](NP(=O)(OC[C@@H]1C[C@@H](O)[C@H](n2cnc3c(N)ncnc32)O1)Oc1cccc2ccccc12)C(=O)OCc1ccccc1 (stereo partly drawn) [B] , state its recorded IC50.
Resp: 1.3 µM

----------
# Tested on: HepG2
# Assay: Solid tumour and haematological malignancy assay (CellTiterGlo)
# Type: cell-based
# Condition description: Homo sapiens, HepG2, 72 h, read-out: EC50 (absolute EC50)
Endpoint: EC50

Req: Entry CC(NP(=O)(OC[C@@H]1C[C@@H](O)[C@H](n2cnc3c(N)nc(Cl)nc32)O1)Oc1cccc2ccccc12)C(=O)OCc1ccccc1 (stereo in doubt) has what EC50?
Resp: 15 to 100 µM

----------
# Tested on: K562 (TdT negative)
# Assay: ATP (ViaLight plus) cytotoxicity assay
# Assay type: cell-based, Human
# Condition description: Homo sapiens; K562, 72 hours; read-out: IC50
Endpoint: pIC50
Numbers only, as −log10 of the molar value.

Req: Recorded pIC50 of Nc1ncnc2c1ncn2[C@@H]1O[C@H](CO)C[C@H]1O [Cordycepin, 3′-deoxyadenosine, reference compound] , please.
Resp: 4.96

----------
Provide the reported IC50 of each item.
# System: HL-60
# Assay: CellTiterGlo viability assay, initial screening
# Assay type: cell-based
# Condition description: Homo sapiens, HL-60, 72 h, read-out: IC50 (relative IC50)

>>> experimental_value("COC(=O)C(C)(C)NP(=O)(OC[C@@H]1C[C@@H](O)[C@H](n2cnc3c(N)ncnc32)O1)Oc1cccc2ccccc12 (stereo partly drawn) [E]")
"15 to 100 µM"
>>> experimental_value("C[C@H](NP(=O)(Oc1cccc2ccccc12)O[C@@H]1C[C@@H](CO)O[C@H]1n1cnc2c(N)ncnc21)C(=O)OCc1ccccc1 (stereo partly drawn) [Compound I]")
"15 to 100 µM"
>>> experimental_value("C[C@H](NP(=O)(OC[C@@H]1C[C@@H](OP(=O)(N[C@@H](C)C(=O)OCc2ccccc2)Oc2ccccc2)[C@H](n2cnc3c(N)ncnc32)O1)Oc1ccccc1)C(=O)OCc1ccccc1 (stereo partly drawn) [H]")
"15 to 100 µM"
>>> experimental_value("C[C@H](NP(=O)(OC[C@@H]1CC(O)[C@H](n2cnc3c(N)ncnc32)O1)Oc1ccccc1)C(=O)OCc1ccccc1 (stereo partly drawn) [Compound A]")
"5 to 15 µM"
>>> experimental_value("C[C@H](NP(=O)(Oc1ccccc1)O[C@@H]1C[C@@H](CO)O[C@H]1n1cnc2c(N)ncnc21)C(=O)OCc1ccccc1 (stereo partly drawn) [G]")
"15 to 100 µM"
>>> experimental_value("Nc1ncnc2c1ncn2[C@@H]1O[C@H](COP(=O)(NCC(=O)OCc2ccccc2)Oc2ccccc2)C[C@H]1O (stereo partly drawn) [C]")
"15 to 100 µM"
>>> experimental_value("C[C@H](NP(=O)(OC[C@@H]1C[C@@H](O)[C@H](n2cnc3c(N)ncnc32)O1)Oc1cccc2ccccc12)C(=O)OCc1ccccc1 (stereo partly drawn) [B]")
"5 to 15 µM"
>>> experimental_value("CCOC(=O)CCc1ccccc1OP(=O)(N[C@@H](C)C(=O)OCc1ccccc1)OC[C@@H]1C[C@@H](O)[C@H](n2cnc3c(N)ncnc32)O1 (stereo partly drawn) [F]")
"15 to 100 µM"

Proceed to the following item.
Req: Form field: reported IC50 of CCCCCOC(=O)[C@H](CC(C)C)NP(=O)(OC[C@@H]1C[C@@H](O)[C@H](n2cnc3c(N)ncnc32)O1)Oc1cccc2ccccc12 (mixture of isomers) [D]
Resp: 5 to 15 µM

----------
# Test system: Z138
# Assay: Solid tumour and haematological malignancy assay (CellTiterGlo)
# Type: cell-based
# Condition description: Homo sapiens; Z-138, 72 hr; read-out: EC50 (absolute EC50)
Endpoint: EC50

Req: Give the measured EC50 of Nc1nc(Cl)nc2c1ncn2[C@@H]1O[C@H](CO)C[C@H]1O [2-Cl-cordycepin, 3′-deoxy-2-chloroadenosine, reference compound] .
Resp: 15 to 100 µM

----------
# Tested on: MOLT-4
# Assay: Solid tumour and haematological malignancy assay (CellTiterGlo)
# Assay type: cell-based
# Condition description: Homo sapiens, MOLT-4, 72 h, read-out: MI %
Endpoint: Emax (%)
Give bare numbers, in %.

Worked examples, 3 compounds total:
>>> experimental_value("CCCCCCOC(=O)[C@H](C)NP(=O)(OC[C@@H]1C[C@H](O)[C@H](n2cnc3c(N)nc(OC)nc32)O1)Oc1ccccc1 (some centres unmarked) [Compound N]")
97
>>> experimental_value("CCCCCOC(=O)[C@H](CC(C)C)NP(=O)(OC[C@@H]1C[C@H](O)[C@H](n2cnc3c(N)nc(OC)nc32)O1)Oc1cccc2ccccc12 (some centres unmarked) [Compound M]")
101
>>> experimental_value("C[C@H](NP(=O)(OC[C@@H]1CC(O)[C@H](n2cnc3c(N)ncnc32)O1)Oc1ccccc1)C(=O)OCc1ccccc1 (some centres unmarked) [Compound A]")
98

Hi! Can you tell me Emax for each of these compounds?
1. CC(NP(=O)(OC[C@@H]1C[C@@H](O)[C@H](n2cnc3c(N)nc(Cl)nc32)O1)Oc1cccc2ccccc12)C(=O)OCc1ccccc1 (stereo in doubt) [S]
2. Nc1ncnc2c1ncn2[C@@H]1O[C@H](COP(=O)(NCC(=O)OCc2ccccc2)Oc2ccccc2)C[C@H]1O (some centres unmarked) [C]

Resp:
[100, 92]

----------
Please provide measured IC50 for the entries that follow.
# Test system: HL-60
# Assay: Solid tumour and haematological malignancy assay (CellTiterGlo)
# Format: cell-based
# Condition description: Homo sapiens, HL-60, 72 h, read-out: IC50 (absolute IC50)
# Experimental: In vitro viability assay were performed to assess the effects of compounds on cell viability in selected cell lines over 72 hr using the CellTiterGlo (CTG, Promega-G7573) assay. […] Cell viability assay using CellTiterGlo in 96-well plate were performed. Compound treatment 72 hrs, standard growth conditions, duplicates. […] All compound solubilities were checked and recorded again, then the plates were transferred to CO2 tissue culture incubator immediately and incubated for 3 days. […]

Before answering, review these 2 worked examples.
>>> experimental_value("CCOC(=O)CCc1ccccc1OP(=O)(N[C@@H](C)C(=O)OCc1ccccc1)OC[C@@H]1C[C@@H](O)[C@H](n2cnc3c(N)ncnc32)O1 (stereo partly drawn) [F]")
"5 to 15 µM"
>>> experimental_value("C[C@H](NP(=O)(OC[C@@H]1C[C@@H](O)[C@H](n2cnc3c(N)ncnc32)O1)Oc1cccc2ccccc12)C(=O)OCc1ccccc1 (stereo partly drawn) [B]")
"0.1 to 5 µM"

Now for another entry.
Req: If you can, please state the reported IC50 value of C[C@H](NP(=O)(OC[C@@H]1CC(O)[C@H](n2cnc3c(N)ncnc32)O1)Oc1ccccc1)C(=O)OCc1ccccc1 (stereo partly drawn) [Compound A] .
Resp: 5 to 15 µM
